assay: ATG_RORE_CIS: Attagene CIS-FACTORIAL HepG2 Assay for human RAR-related Orphan Receptor Element (RORE) (AID 2282959); settings: HepG2 Attagene cis-factorial RORE reporter, mRNA; actives raise or lower the signal
The source made the active and inactive calls. The calls were made as follows: active = hit-call score of the fitted dose curve at least 0.9, where 1 is the maximum; inactive = score below 0.9.
Field 'call' accepts Yes = active, No = inactive

Field: outcome | Entry: CC(C)c1cccc(C(C)C)c1N No

Field: outcome | Entry: CCOC(=O)/C=C\C(=O)OCC No

Field: outcome | Entry: Cc1ccccc1CCO No

###

target: Estrogen receptor (Homo sapiens); experiment: OT_ER_ERaERa_0480: Odyssey Thera (OT) 8-hour HEK293T Protein-Complementation Assay for Estrogen Receptor-alpha/-alpha Homodimer (AID 2283351);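 also: rise in fluorescence from reassembled reporter fragments on ERα LBD homodimer in nucleus or whole cell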
Results filed as inconclusive are left out. Activity calls are given as the source filed them. The calls were made as follows: active = hit-call score of the fitted dose curve at least 0.9, where 1 is the maximum; inconclusive = response in the unintended direction; inactive = score below 0.9.
Field 'call' accepts y = active, n = inactive

Record excerpt, results attached:
Compound: O=C(OCc1ccccc1)c1ccc(O)cc1
Test Target: Estrogen receptor (Homo sapiens)
Class Label: y
--
Compound: CCCCCC[C@@H](O)C/C=C\CCCCCCCC(=O)OCC(O)CO (stereo not given in full)
Test Target: Estrogen receptor (Homo sapiens)
Class Label: n
--
Compound: O=C(OCCc1ccccc1)c1ccccc1
Test Target: Estrogen receptor (Homo sapiens)
Class Label: n
--
Compound: CC(C)(C)C1CCC(=O)CC1
Test Target: Estrogen receptor (Homo sapiens)
Class Label: n
--
Compound: CCN1CN(CC)CN(CC)C1
Test Target: Estrogen receptor (Homo sapiens)
Class Label: n
--
Compound: CCCCC(C=O)CC (stereo not given)
Test Target: Estrogen receptor (Homo sapiens)
Class Label: n

Field: outcome | Entry: CC(=O)OC1CCCCC1C(C)(C)C (stereo not given) n

Field: outcome | Entry: CN(C)Cc1cc(CN(C)C)c(O)c(CN(C)C)c1 n

Field: outcome | Entry: Oc1ccc(-c2ccccc2)c(Cl)c1 y

Field: outcome | Entry: CCCCCCCCCCCC(=O)N(C)CC(=O)O n

Field: outcome | Entry: CCCCCC(=O)OCC n

Field: outcome | Entry: CCCCC(CC)COS(=O)(=O)O (stereo not given) n

Field: outcome | Entry: C=C(C)C1CC=C(C)CC1 (stereo not given) n

Field: outcome | Entry: O=C(Oc1ccccc1)c1ccccc1O n

Field: outcome | Entry: O=c1c(O)c(-c2ccc(O)cc2O)oc2cc(O)cc(O)c12 n

Field: outcome | Entry: C=C[C@@]1(C)CC(=O)[C@]2(O)[C@@]3(C)[C@@H](O)CCC(C)(C)[C@@H]3[C@H](O)[C@H](OC(C)=O)[C@@]2(C)O1 n

Field: outcome | Entry: CCCCC(CC)COC(=O)/C=C/c1ccc(OC)cc1 (stereo not given) n

Field: outcome | Entry: C[Si]1(C)O[Si](C)(C)O[Si](C)(C)O[Si](C)(C)O[Si](C)(C)O1 n

Field: outcome | Entry: CCCCOCCOC(=O)COc1ccc(Cl)cc1Cl n

Field: outcome | Entry: C=C[Si](OCCOC)(OCCOC)OCCOC n

###

biological target: human Retinoid X Receptor beta (RXRb), RXRB (gene 6257) (UniProt P28702); experiment: ATG_RXRb_TRANS: Attagene TRANS-FACTORIAL HepG2 Assay for human Retinoid X Receptor beta (RXRb) (AID 2283013)
Sequence (P28702 whole entry, looked up): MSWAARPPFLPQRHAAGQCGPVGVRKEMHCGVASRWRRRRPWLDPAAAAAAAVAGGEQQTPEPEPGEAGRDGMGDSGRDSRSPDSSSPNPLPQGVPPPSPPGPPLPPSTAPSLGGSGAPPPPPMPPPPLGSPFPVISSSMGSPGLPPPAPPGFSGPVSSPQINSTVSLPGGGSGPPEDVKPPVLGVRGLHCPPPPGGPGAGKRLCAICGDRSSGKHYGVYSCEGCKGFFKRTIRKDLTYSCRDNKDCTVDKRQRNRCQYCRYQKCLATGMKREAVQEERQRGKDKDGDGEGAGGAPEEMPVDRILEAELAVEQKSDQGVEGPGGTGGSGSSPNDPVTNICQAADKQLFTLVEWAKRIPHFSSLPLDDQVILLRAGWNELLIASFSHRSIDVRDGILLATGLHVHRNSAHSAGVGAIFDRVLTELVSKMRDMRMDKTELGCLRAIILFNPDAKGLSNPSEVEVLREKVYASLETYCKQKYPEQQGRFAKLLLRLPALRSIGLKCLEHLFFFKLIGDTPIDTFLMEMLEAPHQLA
Results filed as inconclusive are left out. Calls of active or inactive are those of the source. How the source made its calls: active means hit-call score of the fitted dose curve at least 0.9, where 1 is the maximum; inconclusive means response in the unintended direction; inactive means score below 0.9.
Field 'call' accepts active, inactive

Compound: C1CCSC1
Class Label: inactive

Field: outcome | Entry: N#CC1(N)CCCCC1 inactive

###

read-out: CD40, CD40 (gene 958); experiment: BSK_SAg_CD40: BioMAP Diversity Plus: SAg Assay for CD40 Biomarker Activity (AID 2283088); conditions: primary human HUVEC with PBMC; actives raise or lower the signal
The source made the active and inactive calls. Rule for the calls: active = hit-call score of the fitted dose curve at least 0.9, where 1 is the maximum; inactive = score below 0.9.
Field 'call' accepts Y for active, N for inactive

Record excerpt, results attached:
Compound: CC(CCC(=O)O)(c1ccc(O)cc1)c1ccc(O)cc1
Class Label: N

Compound: CCOC(=O)/C=C\C(=O)OCC
Class Label: N

Compound: CC(Cl)COP(=O)(OCC(C)Cl)OCC(C)Cl (stereo not given)
Class Label: N

Field: outcome | Entry: CC(C)C(=O)OCCc1ccccc1 N

Field: outcome | Entry: CCCCCCCCCCCC(C)=O Y

###

experiment: ATG_ERE_CIS: Attagene CIS-FACTORIAL HepG2 Assay for Estrogen Response Element (ERE) (AID 2282940); conditions: HepG2 ERE cis-reporter, Attagene RNA transcript; actives raise or lower the signal
The source made the active and inactive calls. The calls were made as follows: active = hit-call score of the fitted dose curve at least 0.9, where 1 is the maximum; inactive = score below 0.9.
Field 'call' accepts yes (active), no (inactive)

Molecule: CC(C)=CCCC(C)=CC#N
Class Label: yes

Molecule: CC(C)(CO)C(O)C(=O)NCCCO (stereo not given)
Class Label: no

Molecule: CC(C)c1ccc2ncccc2c1
Class Label: no

Molecule: Cc1noc(NS(=O)(=O)c2ccc(N)cc2)c1C
Class Label: no

Molecule: [Cl][Sc]([Cl])[Cl]
Class Label: no

Molecule: CC(C)CO
Class Label: no

Molecule: CCCCCOC(=O)CCCCC
Class Label: no

Molecule: C=CCOC(=O)c1ccc(C(=O)OCC=C)c(C(=O)OCC=C)c1
Class Label: yes

Molecule: CC(Cl)COP(=O)(OCC(C)Cl)OCC(C)Cl (stereo not given)
Class Label: no

Molecule: O=c1c(O)c(-c2ccc(O)cc2O)oc2cc(O)cc(O)c12
Class Label: yes

Field: outcome | Entry: O=C(O)C(F)(F)C(F)(F)C(F)(F)C(F)(F)C(=O)O no

Field: outcome | Entry: C=C(C)C(=O)OCCCCCCCCCCCC no

Field: outcome | Entry: CCCCCCCCCCCCCc1ccccc1 no

Field: outcome | Entry: CCOB(OCC)OCC no

Field: outcome | Entry: CC1=CC=C(C(C)C)CC1 no

###

assay: ACEA_ER_AUC_viability: ACEA Biosciences xCELLigence Real-Time Cell Analysis on Estrogen Receptor Agonism for Viability (AID 2283782);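 also: continuous compound exposure with impedance area under curve over 80 h; hit means loss of impedance signal meaning reduced cell growth or viability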
Inconclusive results are not listed. Active and inactive are the calls of the source. The calls were made as follows: active = hit-call score of the fitted dose curve at least 0.9, where 1 is the maximum; inconclusive = response in the unintended direction; inactive = score below 0.9.
Field 'call' accepts 1.0 for active, 0.0 for inactive

Record excerpt, results attached:
Molecule: CC(=O)OC1CCCCC1
Class Label: 1.0
--
Molecule: Oc1ccc(/C=C/c2cc(O)cc(O)c2)cc1
Class Label: 1.0
--
Molecule: CC1=C(O)C(=O)C(C)O1 (stereo not drawn)
Class Label: 1.0
--
Molecule: N#CC1(N)CCCCC1
Class Label: 0.0
--
Molecule: CCOC(=O)/C=C\C(=O)OCC
Class Label: 1.0
--
Molecule: CCOC(=O)CC(=O)c1ccccc1
Class Label: 1.0

Field: outcome | Entry: C=C(C)C1CC=C(C)C(OC(C)=O)C1 (stereo not drawn) 1.0

Field: outcome | Entry: N=C1C=CC(=C(c2ccc(N)cc2)c2ccc(N)cc2)C=C1 1.0

###

target: Paired box protein Pax-6 (Homo sapiens); experiment: ATG_Pax6_CIS: Attagene CIS-FACTORIAL HepG2 Assay for human Paired Box 6 (PAX6) (AID 2282956); conditions: HepG2 CIS-FACTORIAL PAX6 reporter transcription, RNA readout; actives raise or lower the signal
Active and inactive are the calls of the source. How the source made its calls: active means hit-call score of the fitted dose curve at least 0.9, where 1 is the maximum; inactive means score below 0.9.
Field 'call' accepts active, inactive

Record excerpt, results attached:
Compound: CCOB(OCC)OCC
Test Target: Paired box protein Pax-6 (Homo sapiens)
Class Label: inactive

Compound: Cn1ccnc1
Test Target: Paired box protein Pax-6 (Homo sapiens)
Class Label: inactive

Compound: O=C1CCCCC1C1CCCCC1 (stereo unspecified)
Test Target: Paired box protein Pax-6 (Homo sapiens)
Class Label: inactive

Compound: CO[Si](C)(C)OC
Test Target: Paired box protein Pax-6 (Homo sapiens)
Class Label: inactive

Compound: CCCCCCCCCCCC(=O)OCC
Test Target: Paired box protein Pax-6 (Homo sapiens)
Class Label: inactive

Compound: Cc1ccc(S(=O)(=O)N=C=O)cc1
Test Target: Paired box protein Pax-6 (Homo sapiens)
Class Label: inactive

Compound: O=C(O)CCC(=O)O
Test Target: Paired box protein Pax-6 (Homo sapiens)
Class Label: inactive

Compound: CC(C)c1ccc(O)c(C(C)C)c1
Test Target: Paired box protein Pax-6 (Homo sapiens)
Class Label: inactive

Field: outcome | Entry: N#Cc1ccc(C2CCCc3cncn32)cc1 (stereo unspecified) inactive

Field: outcome | Entry: N=C1C=CC(=C(c2ccc(N)cc2)c2ccc(N)cc2)C=C1 active

###

assay: CCTE_Shafer_MEA_acute_firing_rate_mean: CCTE's Neural Acute Assay for Mean Firing Rate, Shafer Lab (AID 2284009);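 also: analyzed for loss of signal so actives lower firing rate relative to DMSO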
Activity calls are given as the source filed them. The calls were made as follows: active = hit-call score of the fitted dose curve at least 0.9, where 1 is the maximum; inactive = score below 0.9. Peptide text beside a SMILES is read from it.
Endpoint Label: AC50

Solved cases below.
Compound: Nc1cccc(N)n1
AC50: 3.19 nM (active)

Compound: COC(=O)[C@H](Cc1ccccc1)NC(=O)[C@@H](N)CC(=O)O (H-Asp-Phe-OMe)
AC50: inactive

Compound: Cc1c(C(=O)c2c[nH]n(C)c2=O)ccc(S(C)(=O)=O)c1C1=NOCC1
AC50: inactive

Compound: C1CNCCN1
AC50: inactive

Compound: c1ccc(Nc2cccc3ccccc23)cc1
AC50: 979 nM (active)

Compound: Oc1ccccc1Cc1ccccc1O
AC50: 207 nM (active)

# context switch: different compound, same AC50
Which AC50 value belongs to CC/C=C\CCOC(=O)c1ccccc1O ? inactive
